system name: ALK tyrosine kinase receptor (Homo sapiens, UniProt Q9UM73, L1196M)
Sequence (Q9UM73 19-1620 L1196M limits assumed): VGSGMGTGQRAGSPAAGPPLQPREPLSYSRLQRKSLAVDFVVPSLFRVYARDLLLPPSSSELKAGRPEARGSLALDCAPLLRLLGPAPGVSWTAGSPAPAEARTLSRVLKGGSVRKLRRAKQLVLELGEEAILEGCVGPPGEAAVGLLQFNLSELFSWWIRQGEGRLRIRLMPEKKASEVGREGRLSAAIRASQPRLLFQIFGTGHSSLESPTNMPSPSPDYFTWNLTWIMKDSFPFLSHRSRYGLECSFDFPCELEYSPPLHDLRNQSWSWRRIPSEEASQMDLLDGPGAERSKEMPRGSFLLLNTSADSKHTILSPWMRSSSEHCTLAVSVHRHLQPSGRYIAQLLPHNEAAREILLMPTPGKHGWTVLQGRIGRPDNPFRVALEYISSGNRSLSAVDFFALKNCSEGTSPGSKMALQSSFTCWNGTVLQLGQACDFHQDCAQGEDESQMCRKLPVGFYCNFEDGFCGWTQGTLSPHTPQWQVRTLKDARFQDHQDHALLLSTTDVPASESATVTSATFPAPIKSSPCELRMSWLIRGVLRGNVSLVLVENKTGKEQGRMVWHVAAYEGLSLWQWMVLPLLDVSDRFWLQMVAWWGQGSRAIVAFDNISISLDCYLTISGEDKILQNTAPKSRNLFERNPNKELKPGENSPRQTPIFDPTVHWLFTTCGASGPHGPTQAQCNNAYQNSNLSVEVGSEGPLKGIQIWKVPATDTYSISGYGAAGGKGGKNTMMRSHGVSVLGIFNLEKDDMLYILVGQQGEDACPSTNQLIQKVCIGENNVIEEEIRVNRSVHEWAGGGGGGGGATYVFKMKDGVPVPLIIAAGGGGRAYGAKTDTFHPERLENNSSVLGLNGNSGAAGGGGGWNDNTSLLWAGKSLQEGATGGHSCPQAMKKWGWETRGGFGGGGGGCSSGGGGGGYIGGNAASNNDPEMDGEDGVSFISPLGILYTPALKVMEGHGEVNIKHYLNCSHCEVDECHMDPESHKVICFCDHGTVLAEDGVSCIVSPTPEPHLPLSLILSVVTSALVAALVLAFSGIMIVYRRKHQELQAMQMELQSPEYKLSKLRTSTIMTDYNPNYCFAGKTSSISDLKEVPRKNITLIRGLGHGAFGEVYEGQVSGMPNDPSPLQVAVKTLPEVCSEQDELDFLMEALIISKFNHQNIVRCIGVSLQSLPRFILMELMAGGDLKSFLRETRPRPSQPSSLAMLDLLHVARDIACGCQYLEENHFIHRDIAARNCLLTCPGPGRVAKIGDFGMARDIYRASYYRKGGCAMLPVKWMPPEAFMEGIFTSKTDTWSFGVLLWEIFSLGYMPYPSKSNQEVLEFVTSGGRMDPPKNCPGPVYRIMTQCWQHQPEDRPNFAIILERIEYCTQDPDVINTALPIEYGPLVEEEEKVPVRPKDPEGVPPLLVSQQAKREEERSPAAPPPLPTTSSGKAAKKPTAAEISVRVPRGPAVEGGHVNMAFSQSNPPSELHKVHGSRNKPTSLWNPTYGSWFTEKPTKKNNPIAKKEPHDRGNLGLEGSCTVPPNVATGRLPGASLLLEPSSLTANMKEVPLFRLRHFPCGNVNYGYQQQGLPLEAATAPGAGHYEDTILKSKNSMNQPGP
assay endpoint: pIC50
Answers are plain numbers, as −log10 of the molar value.

{"columns": ["line notation", "pIC50"],
 "data": [
  ["COc1cc(N2CCN(CC(=O)N(C)C)C2=O)ccc1Nc1ncc(Cl)c(Nc2ccccc2S(=O)(=O)C(C)C)n1", 8.43],
  ["COc1cc(N2CCN(CC(=O)N3CCN(C)CC3)C2=O)ccc1Nc1ncc(Cl)c(Nc2ccccc2S(=O)(=O)C(C)C)n1", 9.06],
  ["COc1cc(N2CCN(CC(=O)N3CCC(=O)CC3)C2=O)ccc1Nc1ncc(Cl)c(Nc2ccccc2S(=O)(=O)C(C)C)n1", 8.57],
  ["COc1cc(N2CCN(CC(N)=O)C2=O)ccc1Nc1ncc(Cl)c(Nc2ccccc2S(=O)(=O)C(C)C)n1", 9.02],
  ["COc1cc(N2CCN(CCCN)C2=O)ccc1Nc1ncc(Cl)c(Nc2ccccc2S(=O)(=O)C(C)C)n1", 8.29]
]}

Below are some molecules; for each one, tell me its pIC50.
1. COc1cc(N2CCNC2=O)ccc1Nc1ncc(Cl)c(Nc2ccccc2S(=O)(=O)C(C)C)n1
2. COc1cc(N2CCN(CCN(C)C)C2=O)ccc1Nc1ncc(Cl)c(Nc2ccccc2S(=O)(=O)C(C)C)n1

Return:
8.38
9.14

---

Give measured pIC50 for each item. Keep answers brief.
System: HCC78
assay notes: cells
measurement parameters: Homo sapiens, HCC78, 72 h
Description: Cytotoxicity against human HCC78 cells incubated for 72 hrs by MTT assay
Answers are plain numbers, as −log10 of the molar value.

Study these solved cases before continuing.
{"columns": ["line notation", "pIC50"],
 "data": [
  ["COc1cc(N2CCNC2=O)ccc1Nc1ncc(Cl)c(Nc2ccccc2S(=O)(=O)C(C)C)n1", 7.01],
  ["CCOC(=O)CN1CCN(c2ccc(Nc3ncc(Cl)c(Nc4ccccc4S(=O)(=O)C(C)C)n3)c(OC)c2)C1=O", 5.80],
  ["COc1cc(N2CCN(CC(=O)O)C2=O)ccc1Nc1ncc(Cl)c(Nc2ccccc2S(=O)(=O)C(C)C)n1", 5.60],
  ["CNC(=O)CN1CCN(c2ccc(Nc3ncc(Cl)c(Nc4ccccc4S(=O)(=O)C(C)C)n3)c(OC)c2)C1=O", 6.21],
  ["COc1cc(N2CCN(CC(=O)N3CCCCC3)C2=O)ccc1Nc1ncc(Cl)c(Nc2ccccc2S(=O)(=O)C(C)C)n1", 6.31],
  ["COc1cc(N2CCN(CC(=O)N3CCC(=O)CC3)C2=O)ccc1Nc1ncc(Cl)c(Nc2ccccc2S(=O)(=O)C(C)C)n1", 6.17],
  ["COc1cc(N2CCN(CC(=O)NC3CC3)C2=O)ccc1Nc1ncc(Cl)c(Nc2ccccc2S(=O)(=O)C(C)C)n1", 6.29],
  ["COc1cc(N2CCN(CC(=O)NCC#N)C2=O)ccc1Nc1ncc(Cl)c(Nc2ccccc2S(=O)(=O)C(C)C)n1", 7.11]
]}

For each listed entry, give its pIC50.
1. Cc1cc(Nc2ncc(Cl)c(Nc3ccccc3S(=O)(=O)C(C)C)n2)c(OC(C)C)cc1C1CCNCC1
2. COc1cc(N2CCN(C(=O)N(C)C)C2=O)ccc1Nc1ncc(Cl)c(Nc2ccccc2S(=O)(=O)C(C)C)n1
3. COc1cc(N2CCN(CC(=O)N3CCC[C@H]3CO)C2=O)ccc1Nc1ncc(Cl)c(Nc2ccccc2S(=O)(=O)C(C)C)n1
4. COc1cc(N2CCN(CCCN)C2=O)ccc1Nc1ncc(Cl)c(Nc2ccccc2S(=O)(=O)C(C)C)n1
5. COc1cc(N2CCN(CC(=O)N3CCN(CCO)CC3)C2=O)ccc1Nc1ncc(Cl)c(Nc2ccccc2S(=O)(=O)C(C)C)n1
6. COCCN1CCN(c2ccc(Nc3ncc(Cl)c(Nc4ccccc4S(=O)(=O)C(C)C)n3)c(OC)c2)C1=O
7. COc1cc(N2CCN(CC(=O)N3CCSCC3)C2=O)ccc1Nc1ncc(Cl)c(Nc2ccccc2S(=O)(=O)C(C)C)n1
8. COc1cc(N2CCN(CC(=O)N3CCN(C)CC3)C2=O)ccc1Nc1ncc(Cl)c(Nc2ccccc2S(=O)(=O)C(C)C)n1

Return:
7.17
6.17
7.25
6.80
6.41
6.39
6.28
7.06

---

system name: Hepatocyte growth factor receptor (Homo sapiens, UniProt P08581)
Sequence (P08581 whole entry): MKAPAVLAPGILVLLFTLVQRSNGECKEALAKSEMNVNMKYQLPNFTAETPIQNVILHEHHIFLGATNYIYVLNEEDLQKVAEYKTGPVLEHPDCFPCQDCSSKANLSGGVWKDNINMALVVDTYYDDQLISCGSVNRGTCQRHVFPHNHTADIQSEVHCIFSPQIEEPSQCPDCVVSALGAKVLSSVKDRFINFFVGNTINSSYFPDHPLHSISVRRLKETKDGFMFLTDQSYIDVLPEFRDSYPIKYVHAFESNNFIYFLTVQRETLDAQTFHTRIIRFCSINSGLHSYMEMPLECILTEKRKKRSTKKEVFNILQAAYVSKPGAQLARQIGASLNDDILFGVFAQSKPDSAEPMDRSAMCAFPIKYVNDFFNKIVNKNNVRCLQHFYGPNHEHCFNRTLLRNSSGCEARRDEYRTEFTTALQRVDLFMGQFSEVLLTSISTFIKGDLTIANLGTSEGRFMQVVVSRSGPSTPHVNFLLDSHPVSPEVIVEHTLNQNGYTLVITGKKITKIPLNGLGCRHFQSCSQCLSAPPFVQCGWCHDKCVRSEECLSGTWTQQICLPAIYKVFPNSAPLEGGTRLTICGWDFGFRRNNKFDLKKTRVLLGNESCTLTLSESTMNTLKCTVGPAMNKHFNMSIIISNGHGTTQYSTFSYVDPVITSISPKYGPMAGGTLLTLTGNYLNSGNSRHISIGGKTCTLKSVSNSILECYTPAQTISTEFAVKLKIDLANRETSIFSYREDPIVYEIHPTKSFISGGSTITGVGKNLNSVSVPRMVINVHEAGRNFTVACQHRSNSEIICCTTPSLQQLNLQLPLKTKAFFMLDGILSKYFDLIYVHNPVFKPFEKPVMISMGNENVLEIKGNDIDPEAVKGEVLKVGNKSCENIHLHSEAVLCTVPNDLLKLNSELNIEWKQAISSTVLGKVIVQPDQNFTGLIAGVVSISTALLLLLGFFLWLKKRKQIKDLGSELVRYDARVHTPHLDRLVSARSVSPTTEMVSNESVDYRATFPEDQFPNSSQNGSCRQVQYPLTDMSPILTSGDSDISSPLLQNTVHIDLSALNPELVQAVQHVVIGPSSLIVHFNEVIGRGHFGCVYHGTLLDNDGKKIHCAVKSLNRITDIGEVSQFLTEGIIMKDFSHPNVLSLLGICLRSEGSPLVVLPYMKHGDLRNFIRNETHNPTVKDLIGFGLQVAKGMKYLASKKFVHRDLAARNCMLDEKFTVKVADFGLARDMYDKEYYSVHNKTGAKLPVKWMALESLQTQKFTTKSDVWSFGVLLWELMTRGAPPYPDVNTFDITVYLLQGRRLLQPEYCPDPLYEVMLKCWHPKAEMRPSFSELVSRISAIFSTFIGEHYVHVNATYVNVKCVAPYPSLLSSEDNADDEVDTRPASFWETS
assay endpoint: pIC50
Answers are plain numbers, as −log10 of the molar value.

Enquiry: Which pIC50 reading was recorded for the compound COc1cc(N2CCN(CCN(C)C)C2=O)ccc1Nc1ncc(Cl)c(Nc2ccccc2S(=O)(=O)C(C)C)n1 ?
Return: 6.67

---

assay notes: Volume of distribution in Sprague-Dawley rat at 2 mg/kg, iv by UPLC/MS/MS analysis
Assay type: ADME, organism-based
measurement parameters: in vivo
assay endpoint: Vd (L/kg)
One number for each entry, in L/kg.

Enquiry: Entry COc1cc(N2CCN(CCN(C)C)C2=O)ccc1Nc1ncc(Cl)c(Nc2ccccc2S(=O)(=O)C(C)C)n1 : reported Vd = ?
Return: 9.93

---

Please provide measured IC50 for the entries that follow.
Tested on: KARPAS-299
assay notes: cells
measurement parameters: Homo sapiens, KARPAS-299, 72 h
Description: Cytotoxicity against human KARPAS299 cells incubated for 72 hrs by MTT assay
Kindly report the value followed by its unit.

Recorded IC50, per entry:
{"columns": ["line notation", "assay endpoint", "meas value"],
 "data": [
  ["COc1cc(N2CCN(C(=O)C3CCOCC3)C2=O)ccc1Nc1ncc(Cl)c(Nc2ccccc2S(=O)(=O)C(C)C)n1", "IC50", "310 nM"],
  ["COc1cc(N2CCN(CC(=O)N3CCCCC3)C2=O)ccc1Nc1ncc(Cl)c(Nc2ccccc2S(=O)(=O)C(C)C)n1", "IC50", "150 nM"]
]}

// each compound listed below needs its IC50
1. COc1cc(N2CCN(C[C@@H]3CO3)C2=O)ccc1Nc1ncc(Cl)c(Nc2ccccc2S(=O)(=O)C(C)C)n1
2. COc1cc(N2CCN(CC(=O)N3CCC(=O)CC3)C2=O)ccc1Nc1ncc(Cl)c(Nc2ccccc2S(=O)(=O)C(C)C)n1

Return:
1. 170 nM
2. 100 nM

---

assay notes: Half life in Sprague-Dawley rat at 2 mg/kg, iv by UPLC/MS/MS analysis
Assay type: ADME, organism-based
measurement parameters: in vivo
assay endpoint: half-life (min)
Numbers only, in min.

Enquiry: May I ask what half-life has been recorded for COc1cc(N2CCN(CCN(C)C)C2=O)ccc1Nc1ncc(Cl)c(Nc2ccccc2S(=O)(=O)C(C)C)n1 ?
Return: 414

---

assay notes: Inhibition of PI3K (unknown origin) incubated for 1 hr by mobility shift assay
Set-up: species or system Homo sapiens
assay endpoint: IC50

Enquiry: Using the record for COc1cc(N2CCN(CCN(C)C)C2=O)ccc1Nc1ncc(Cl)c(Nc2ccccc2S(=O)(=O)C(C)C)n1 , report its IC50.
Return: > 1 µM

---

assay notes: Oral bioavailability in Sprague-Dawley rat at 10 mg/kg by UPLC/MS/MS analysis
Format: ADME, organism-based
measurement parameters: in vivo
assay endpoint: bioavailability
Answers without a unit are incomplete; give the number and then its unit.

Enquiry: # input molecule: COc1cc(N2CCN(CCN(C)C)C2=O)ccc1Nc1ncc(Cl)c(Nc2ccccc2S(=O)(=O)C(C)C)n1 ; wanted: its bioavailability
Return: 23%
